Structures can show the parent of a compound that is named as a salt.
observation_type: melting point (°C)
The reply should be a number in °C, with the unit left off.

Please fill in: melting point reported for CN1CCN(C(=O)c2ccc(-c3[nH]nc4c3C(=O)c3c(NC(=O)NN5CCOCC5)cccc3-4)s2)CC1 (as salt: TFA) [Example CL] = 186

Please fill in: melting point reported for CC(C)c1[nH]nc2c1C(=O)c1c(NC(=O)NN3CCN(C)CC3)cccc1-2 [Example CXXI] = 231

Please fill in: melting point reported for O=C(Nc1cccc2c1C(=O)c1c-2n[nH]c1-c1ccc(N2CCNCC2)cc1)NN1CCC[C@@H]1COCc1ccccc1 (as salt: TFA) [Example CCXXXV] = 207

Please fill in: melting point reported for CC(C)c1[nH]nc2c1C(=O)c1c(NC(=O)CN3CCC(C(N)=O)CC3)cccc1-2 [Example CXV] = 224

Please fill in: melting point reported for COC[C@H]1CCCN1C(=O)c1ccc(-c2[nH]nc3c2C(=O)c2c(NC(=O)NN4CCOCC4)cccc2-3)s1 (as salt: TFA) [Example CLXXXVI] = 262

Please fill in: melting point reported for COc1ccc(-c2[nH]nc3c2C(=O)c2c(NC(=O)Cc4ccc5c(c4)OCO5)cccc2-3)cc1 (hydrate or solvate) [Example XVII] = 297

Please fill in: melting point reported for CN(C)c1ccc(-c2[nH]nc3c2C(=O)c2c(NC(=O)CN4CCC(O)CC4)cccc2-3)cc1 [Example LXXX] = 267

Please fill in: melting point reported for CN1C[C@@H]2C[C@@]1(C(=O)c1ccc(-c3[nH]nc4c3C(=O)c3c(NC(=O)NN5CCOCC5)cccc3-4)s1)CN2 (as salt: TFA) [Example CLVII] = 244

Please fill in: melting point reported for O=C(Nc1cccc2c1C(=O)c1c-2n[nH]c1-c1ccc(C(=O)N2CCC[C@H]2CO)s1)NN1CCOCC1 (as salt: TFA) [Example CLXXXV] = 267

Please fill in: melting point reported for Cc1ccsc1-c1[nH]nc2c1C(=O)c1c(NC(N)=O)cccc1-2 [Example XCVII] = 270
